Catalogue of molecules with associated Max (maximum inhibition observed at concentrations tested)
Tested on: affinity purified β2GPI-dependent antiphospholipid antibody
PROTOCOL: Competitive inhibition ELISA: recombinant β2GPI proteins compete for antibody binding to coated full length recombinant β2GPI
Set-up: species or system human
EXPERIMENTAL_PARAMETERS: Ab 6632
PROPERTY_LABEL: Max (maximum inhibition observed at concentrations tested) (%)

{"MOLECULE": "123--: recombinant β2GPI deletion mutant with domains 1, 2, 3 (protein) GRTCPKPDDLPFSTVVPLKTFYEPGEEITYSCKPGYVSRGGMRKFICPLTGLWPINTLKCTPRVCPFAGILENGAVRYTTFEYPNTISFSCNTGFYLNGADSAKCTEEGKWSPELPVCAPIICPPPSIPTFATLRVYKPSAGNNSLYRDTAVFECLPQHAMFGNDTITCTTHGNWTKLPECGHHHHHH", "VAL": 90}
{"MOLECULE": "1----: recombinant β2GPI protein with domain 1 only (SEQ ID NO:4 region), His6 tail (protein) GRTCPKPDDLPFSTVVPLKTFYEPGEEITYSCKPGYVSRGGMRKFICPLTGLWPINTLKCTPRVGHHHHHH", "VAL": 90}
{"MOLECULE": "---45: recombinant β2GPI deletion mutant with domains 4, 5 (protein) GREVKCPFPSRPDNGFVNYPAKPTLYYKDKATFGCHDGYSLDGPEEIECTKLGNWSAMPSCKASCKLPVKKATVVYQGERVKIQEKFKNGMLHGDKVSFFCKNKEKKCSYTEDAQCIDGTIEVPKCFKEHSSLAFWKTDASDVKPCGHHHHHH", "VAL": 20}
{"MOLECULE": "recombinant β2GPI domain 5 with GlyHis6 (----5) (protein) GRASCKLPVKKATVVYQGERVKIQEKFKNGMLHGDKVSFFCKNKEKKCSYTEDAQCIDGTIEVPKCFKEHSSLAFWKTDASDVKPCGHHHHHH", "VAL": 10}
{"MOLECULE": "1234-: recombinant β2GPI deletion mutant with domains 1, 2, 3, 4 (protein) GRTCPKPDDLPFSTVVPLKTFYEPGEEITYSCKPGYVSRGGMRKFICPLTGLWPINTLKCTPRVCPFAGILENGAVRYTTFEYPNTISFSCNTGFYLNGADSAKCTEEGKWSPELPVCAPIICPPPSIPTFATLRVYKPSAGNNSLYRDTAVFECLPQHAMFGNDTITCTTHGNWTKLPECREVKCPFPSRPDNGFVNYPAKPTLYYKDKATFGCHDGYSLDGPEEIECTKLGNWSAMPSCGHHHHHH", "VAL": 60}
{"MOLECULE": "-2345: recombinant β2GPI deletion mutant with domains 2-5 (protein) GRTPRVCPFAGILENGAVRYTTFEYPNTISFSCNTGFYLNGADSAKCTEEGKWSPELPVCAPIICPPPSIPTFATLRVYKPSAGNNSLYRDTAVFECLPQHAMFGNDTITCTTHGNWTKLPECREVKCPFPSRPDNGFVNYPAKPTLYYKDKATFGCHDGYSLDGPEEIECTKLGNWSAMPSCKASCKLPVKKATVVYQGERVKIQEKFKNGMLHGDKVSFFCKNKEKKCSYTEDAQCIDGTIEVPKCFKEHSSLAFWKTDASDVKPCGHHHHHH", "VAL": 20}
{"MOLECULE": "--345: recombinant β2GPI deletion mutant with domains 3, 4, 5 (protein) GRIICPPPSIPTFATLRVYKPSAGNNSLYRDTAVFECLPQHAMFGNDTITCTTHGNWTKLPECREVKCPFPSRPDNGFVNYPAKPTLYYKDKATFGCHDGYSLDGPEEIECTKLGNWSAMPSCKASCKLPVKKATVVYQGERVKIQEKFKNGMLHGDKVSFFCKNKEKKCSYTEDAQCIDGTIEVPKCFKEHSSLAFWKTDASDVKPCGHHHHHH", "VAL": 20}
{"MOLECULE": "12---: recombinant β2GPI deletion mutant with domains 1 and 2 (protein) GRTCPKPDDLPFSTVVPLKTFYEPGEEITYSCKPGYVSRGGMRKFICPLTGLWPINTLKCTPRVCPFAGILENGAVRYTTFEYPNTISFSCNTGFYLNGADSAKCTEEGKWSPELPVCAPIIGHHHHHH", "VAL": 70}
